- System: A498 renal
- assay.remarks: NCI-60 one-dose screen, 48 h
- study.conditions: 10 µM unless noted
Compounds without any hit were thinned out: in the full panel of roughly 83,000, 20% have a hit. Activity calls are given as the source filed them. How the source made its calls: active means growth percent below 10; inactive means the rest.
Entry note: the call must match one of true (1) (active), false (0) (inactive)

Example entries and their recorded answers appear below.
CCN(CC)CCOc1ccc(Nc2ncc3cc(-c4ccc(O)cc4)c(=O)n(C)c3n2)cc1 ... false (0)
O=C(CCCCNC(=O)c1cc(=O)c(O)co1)Nc1ccccc1 ... false (0)
COc1ccc(NC(=O)c2cccc(C3CCc4c(cc(OC)c(OC)c4OC)O3)c2)cc1 (stereo not drawn) ... true (1)
Cn1c(O)c(C(/C=C/c2ccccc2)=Nc2ccccc2N)c(=O)n(C)c1=O ... false (0)

Prompt line: Check the results log: what was the call for Cn1cc(-c2csc(-c3cn(C)c4ccc(Br)cc34)n2)c2cnccc21 ?
Response line: false (0)

Prompt line: What do you get for N=C(N)c1ccc(-c2ccc(-c3ccc(Cl)cc3)o2)o1 ?
Response line: false (0)

Prompt line: What do you get for COc1cccc(C(=O)OCC(O)C(=O)NC23CC4CC(CC(C4)C2)C3)c1 (stereo not drawn) ?
Response line: false (0)

Prompt line: What do you get for C=CC1(C)C(O[Si](C)(C)C(C)(C)C)CC2C3OC(=O)NC31c1cccc3c1[C@H](C(=O)N3C)C2(C)C (stereo partly drawn) ?
Response line: false (0)

----------
- Tested on: UACC-62 melanoma
- assay.remarks: NCI-60 one-dose screen, 48 h (100 = growth as untreated, 0 = no growth, -100 = all killed)
- study.conditions: 10 µM unless noted
- Experimental: Growth inhibition of the UACC-62 human tumor cell line is measured as a screen for anti-cancer activity. Cells are grown in 96 well plates and exposed to the test compound for 48 hours. Compounds are tested at a single concentration, which is 10^-5 M for most compounds. The reported endpoint is percent growth (GI% or GIPRCNT), where numbers from 0 - 100% represent growth inhibition, and numbers from -100% - 0 represent cell death. For example, a value of 40 represents 60% growth inhibition. […]
This is part of a sample that, as a whole, favours compounds with a hit. Of some 83,000 tested, about 20% had one in any assay.
attribute.measured: growth (%)
Your answer should be a plain number; it is taken to be in %.

Would you please look over these solved cases?
COc1ccc(OC)c(-c2cn3nc(-c4c[nH]c5ccc(Br)cc45)sc3n2)c1 ... 50.1
COc1cc(Nc2c3ccc(Cl)cc3nc3ccc(OC)cc23)c2ncccc2c1 ... 36.4
COc1ccc(-c2cc(-c3cc(OC)c(OC)c(OC)c3)c(C#N)c(=O)n2CCCCCC(=O)NO)cc1 ... 93.3
Cn1c(O)c(C(/C=C/c2ccccc2)=Nc2ccccc2N)c(=O)n(C)c1=O ... 76.1
COc1cccc(NC(=O)c2cccc(C3CCc4c(cc(OC)c(OC)c4OC)O3)c2)c1 (configuration not stated) ... 40.6

Prompt line: // lookup growth for CCCCSCC(=O)c1ccccc1
Response line: 102

Prompt line: What do you get for CC1(C)C2CC=C(/C=N/NC(=O)C3CCC(=O)N3)C1C2 (configuration not stated) ?
Response line: 99.2

Prompt line: What do you get for CCNC(=O)Oc1ccc(/C(=C(/C)Cc2ccc(OC)cc2)c2ccc(OCCN3CCCCCC3)cc2)cc1 ?
Response line: 73.2

Prompt line: What do you get for CCSC1=CC(=O)c2ccccc2C1=O ?
Response line: 59.1

Prompt line: What do you get for Cn1cc(-c2nonc2-c2c[nH]c3ccc(F)cc23)c2cc(Br)ccc21 ?
Response line: 52.9

Prompt line: What do you get for Cn1cc(-c2csc(-c3cn(C(=O)OC(C)(C)C)c4ccccc34)n2)c2ccnc(Cl)c21 ?
Response line: 78.2

Prompt line: What do you get for COc1ccc(-c2ccc(=O)oc2C#Cc2cc(OC)c(OC)c(OC)c2)cc1O ?
Response line: 14.8

Prompt line: What do you get for O=C(Nc1ccc(F)cc1)Nc1ccccc1CNc1nc(Nc2ccc(OCCN3CCCC3)cc2)ncc1Cl ?
Response line: 95.2

Prompt line: What do you get for CCN1CCN(CC(=O)Nc2nc3ccc(NCc4ccc(Br)cc4)cc3s2)CC1 ?
Response line: -47.1

Prompt line: What do you get for COc1cc(C(=O)c2c(-c3ccccc3)oc3c(OC)cccc23)cc(OC)c1O ?
Response line: 39.3

Prompt line: What do you get for CCNC(=O)Oc1ccc(/C(=C(/C)Cc2ccc(OC)cc2)c2ccc(OCCN3CCCC3)cc2)cc1 ?
Response line: 69.1

Prompt line: What do you get for CC(C)c1ccc(C(=O)Nc2sc3cc(O)ccc3c2C#N)cc1 ?
Response line: 18

Prompt line: What do you get for CCOC(=O)N1CCN(S(=O)(=O)c2oc(-c3ccc(Cl)cc3)nc2C#N)CC1 ?
Response line: 98.8

Prompt line: What do you get for C[C@@H]1CC[C@@]2(OC1)O[C@H]1C[C@H]3[C@@H]4CC=C5C[C@@H](O[C@@H]6O[C@H](CO)[C@@H](O[C@@H]7O[C@@H](CO)[C@H](O)[C@H]7O)[C@H](O)[C@H]6O[C@@H]6O[C@@H](C)[C@H](O)[C@@H](O)[C@H]6O)CC[C@]5(C)[C@H]4CC[C@]3(C)[C@H]1[C@@H]2C ?
Response line: -98

Prompt line: What do you get for Cc1ncc(C(=O)Nc2ccc(CN3CCN(C)CC3)c(C(F)(F)F)c2)cc1C#Cc1cnc(N)c2cnccc12 ?
Response line: -65.2

Prompt line: What do you get for CCCNc1nc2ccccc2c2c(=O)c3cccc(Cl)c3sc12 ?
Response line: 84.3

Prompt line: What do you get for CN1CCN(Cc2cc(NC(=O)c3cccc(C#Cc4cccc5[nH]nc(N)c45)c3)cc(C(F)(F)F)c2)CC1 ?
Response line: 12.1

Prompt line: What do you get for S=c1[nH]c2cc(Cl)ccc2o1 ?
Response line: 96.6

Prompt line: What do you get for CNCc1cccc2c1OCCOCCN(C)C(=O)CN(C)S(=O)(=O)c1ccc(cc1)-c1cnc(N)c(n1)C(=O)N2 ?
Response line: 4.98

Prompt line: What do you get for O=C(Nc1nc(C(=O)N2CCN(C(c3ccccc3)c3ccccc3)CC2)cs1)c1ccc(NC2CCCCC2)c([N+](=O)[O-])c1 ?
Response line: 67.1

Prompt line: What do you get for CCCCCCCCn1ccc2cc(NC(=O)Cn3cc(CN4CCN(CC)CC4)nn3)ccc21 ?
Response line: -78.2

Prompt line: What do you get for COc1cc2cc(Oc3ccc(NC(=O)Nc4ccccc4)cc3)c(C)nc2cc1OCCN1CCCCC1 ?
Response line: 95.4

----------
- System: COLO 205 colon
- assay.remarks: NCI-60 one-dose screen, 48 h (100 = growth as untreated, 0 = no growth, -100 = all killed)
- study.conditions: 10 µM unless noted
This is part of a sample that, as a whole, favours compounds with a hit. Of some 83,000 tested, about 20% had one in any assay.
attribute.measured: growth (%)
Your answer should be a plain number; it is taken to be in %.

Would you please look over these solved cases?
N#Cc1c(NC(=O)c2cccs2)[n+]([O-])c2ccc(Cl)cc2[n+]1[O-] ... 113
O[C@@H](c1cc(C(F)(F)F)nc2c(C(F)(F)F)cccc12)[C@H]1CCCCN1 ... 67.9
COc1ccc(NC(=O)c2ccc(C(=O)Nc3ccc(OC)cc3OC)cc2)c(OC)c1 ... 115
COCC[C@H]1CCC/C=C/[C@@H]2C[C@H](O)C[C@H]2[C@H](O)/C=C/C(=O)O1 ... -64.4
Cc1ccc2[nH]c(=O)c3c(c2c1)OC(N)=C(C#N)C31C(=O)c2cccc3cccc1c23 (configuration not stated) ... 103
CC1COCC(C)N1C1=C(Cl)C(=O)c2ccccc2C1=O (configuration not stated) ... 104

Prompt line: What is its growth for COLO 205 colon? Entry: O=C(CCC(=O)c1nc2ncccc2[nH]1)NN1C(=O)CSC1c1ccc(Cl)cc1 (configuration not stated)
Response line: 116

Prompt line: What do you get for COc1ccccc1NC(=O)c1ccc(/C=C/C(=O)c2nccn2C)cc1 ?
Response line: -53.1

Prompt line: What do you get for O=C1NC(=O)c2c1c1c3ccccc3[nH]c1c1oc3ccc(F)cc3c21 ?
Response line: 79.4

Prompt line: What do you get for C[C@@H]1CC[C@@]2(OC1)O[C@H]1C[C@H]3[C@@H]4CC=C5C[C@@H](O[C@@H]6O[C@H](CO)[C@@H](O[C@@H]7O[C@@H](CO)[C@H](O)[C@H]7O)[C@H](O)[C@H]6O[C@@H]6O[C@@H](C)[C@H](O)[C@@H](O)[C@H]6O)CC[C@]5(C)[C@H]4CC[C@]3(C)[C@H]1[C@@H]2C ?
Response line: -89.9

Prompt line: What do you get for O=C(N/N=C/c1ccc([N+](=O)[O-])cc1)c1ccc2nc(-c3ccc(Cl)cc3)[nH]c2c1 ?
Response line: 2.28

Prompt line: What do you get for Cc1cc(C)cc(Nc2ccc([N+](=O)[O-])c(NCCN3CCOCC3)n2)c1 ?
Response line: -45.9
